system: SF-295 CNS; test: NCI-60 one-dose screen, 48 h; conditions: 10 µM unless noted
The panel holds about 83,000 compounds, 20% with a hit somewhere; the sample as a whole holds those more often. Active and inactive are the calls of the source. How the source made its calls: active means growth percent below 10; inactive means the rest.
Classes used: active, inactive

{"MOLECULE": "CN(C)CCn1cc(-c2ccc3c(Nc4ccc(CC(=O)Nc5cccc(F)c5)cc4)ncnc3c2)cn1", "EXPERIMENTAL_TARGET": "SF-295 CNS", "QUALITATIVE_LABEL": "active"}
{"MOLECULE": "O=C1CSC(c2ccc(O)cc2)N1c1nnc(Cn2cnnc2)o1 (centres undefined)", "EXPERIMENTAL_TARGET": "SF-295 CNS", "QUALITATIVE_LABEL": "inactive"}
{"MOLECULE": "Cc1cc(=O)c2cc3nc(-c4cccnc4)oc3c(Br)c2o1", "EXPERIMENTAL_TARGET": "SF-295 CNS", "QUALITATIVE_LABEL": "inactive"}
{"MOLECULE": "COc1ccc2c(c1)/C(=C\\c1sc(=S)[nH]c1O)C(C(=O)O)=N2", "EXPERIMENTAL_TARGET": "SF-295 CNS", "QUALITATIVE_LABEL": "inactive"}
{"MOLECULE": "COc1ccc2cc(-c3ccc(C(=O)NN)c(C)n3)ccc2c1", "EXPERIMENTAL_TARGET": "SF-295 CNS", "QUALITATIVE_LABEL": "inactive"}
{"MOLECULE": "CC(=O)c1cc2c(o1)C(=O)c1ccccc1C2=O", "EXPERIMENTAL_TARGET": "SF-295 CNS", "QUALITATIVE_LABEL": "active"}
{"MOLECULE": "O=C(NCCN1CCC(O)CC1)c1cc2c(o1)C(=O)c1ccccc1C2=O", "EXPERIMENTAL_TARGET": "SF-295 CNS", "QUALITATIVE_LABEL": "active"}
{"MOLECULE": "O=C1/C(=C/c2ccccc2[N+](=O)[O-])COc2ccc(O)c(O)c21", "EXPERIMENTAL_TARGET": "SF-295 CNS", "QUALITATIVE_LABEL": "inactive"}
{"MOLECULE": "O=C(CC1Sc2ccccc2NC1=O)NNc1ccc(F)cc1 (centres undefined)", "EXPERIMENTAL_TARGET": "SF-295 CNS", "QUALITATIVE_LABEL": "inactive"}
{"MOLECULE": "O=C1CSC(c2ccccc2)N1c1ccccc1 (centres undefined)", "EXPERIMENTAL_TARGET": "SF-295 CNS", "QUALITATIVE_LABEL": "inactive"}
{"MOLECULE": "CC(=O)Nc1ccc(-c2cc3c(NCc4ccc(F)cc4)ncnc3s2)cc1", "EXPERIMENTAL_TARGET": "SF-295 CNS", "QUALITATIVE_LABEL": "inactive"}
{"MOLECULE": "Cn1ccc(Cc2cnc(N)s2)n1", "EXPERIMENTAL_TARGET": "SF-295 CNS", "QUALITATIVE_LABEL": "inactive"}
{"MOLECULE": "O=C(Nc1ccc(N2CCCCC2)c(Cl)c1)c1ccc(Br)o1", "EXPERIMENTAL_TARGET": "SF-295 CNS", "QUALITATIVE_LABEL": "inactive"}
{"MOLECULE": "COc1ccc(-c2nc3sccn3c2/C=C/C(=O)c2c[nH]c3ccccc23)cc1", "EXPERIMENTAL_TARGET": "SF-295 CNS", "QUALITATIVE_LABEL": "inactive"}
{"MOLECULE": "O=C(O)CC1Sc2ccccc2NC1=O (centres undefined)", "EXPERIMENTAL_TARGET": "SF-295 CNS", "QUALITATIVE_LABEL": "inactive"}
{"MOLECULE": "COC(=O)c1ccc(CSc2nnc(-c3ccncc3)o2)cc1", "EXPERIMENTAL_TARGET": "SF-295 CNS", "QUALITATIVE_LABEL": "inactive"}
{"MOLECULE": "CC(C)(C)CC(C)(C)Nc1c(-c2ccc(-c3ccccc3)cc2)nc2cnccn12", "EXPERIMENTAL_TARGET": "SF-295 CNS", "QUALITATIVE_LABEL": "inactive"}
{"MOLECULE": "CN(C)S(=O)(=O)n1cnc([C@@H]2[C@@H]3C(=O)OC[C@@H]3C[C@]23N=CN(Cc2ccccc2)C3=O)c1", "EXPERIMENTAL_TARGET": "SF-295 CNS", "QUALITATIVE_LABEL": "inactive"}
{"MOLECULE": "Cl.[Pt].[c-]1ccccc1-c1ccccn1.c1ccc(P(c2ccccc2)C([PH+](c2ccccc2)c2ccccc2)[PH+](c2ccccc2)c2ccccc2)cc1", "EXPERIMENTAL_TARGET": "SF-295 CNS", "QUALITATIVE_LABEL": "active"}
{"MOLECULE": "O=C1Nc2ccccc2/C1=N/N=C/c1ccsc1", "EXPERIMENTAL_TARGET": "SF-295 CNS", "QUALITATIVE_LABEL": "inactive"}
{"MOLECULE": "CC(C)(C)c1ccc(C(=O)Nc2sc3c(c2C(N)=O)CCC(=O)C3)cc1", "EXPERIMENTAL_TARGET": "SF-295 CNS", "QUALITATIVE_LABEL": "active"}
{"MOLECULE": "Cc1ccccc1NC(=O)CN(C)C", "EXPERIMENTAL_TARGET": "SF-295 CNS", "QUALITATIVE_LABEL": "inactive"}
{"MOLECULE": "CCCCOc1nc2ccc(Cl)cc2cc1/C=C/C(=O)/C=C1/CC(c2cc3cc(Cl)ccc3nc2OCCCC)Nc2ccccc2N1 (centres undefined)", "EXPERIMENTAL_TARGET": "SF-295 CNS", "QUALITATIVE_LABEL": "inactive"}
{"MOLECULE": "C#CC[C@H](N)C(=O)O", "EXPERIMENTAL_TARGET": "SF-295 CNS", "QUALITATIVE_LABEL": "inactive"}
{"MOLECULE": "C=C1C(=O)O[C@H]2[C@H]1CC/C(C(=O)NCCCCCCCCNC(=O)/C1=C/CC[C@@]3(C)O[C@H]3[C@H]3OC(=O)C(=C)[C@@H]3CC1)=C\\CC[C@@]1(C)O[C@@H]21", "EXPERIMENTAL_TARGET": "SF-295 CNS", "QUALITATIVE_LABEL": "inactive"}
{"MOLECULE": "C=C(C)[C@@H]1CC[C@]2(C(=O)NCC(=O)O)CC[C@]3(C)[C@H](CC[C@@H]4[C@@]5(C)Cc6c([nH]c7ccccc67)C(C)(C)[C@@H]5CC[C@]43C)[C@@H]12", "EXPERIMENTAL_TARGET": "SF-295 CNS", "QUALITATIVE_LABEL": "inactive"}
{"MOLECULE": "COc1cc2c(cc1OC)-c1ccc3cc4c(cc3c1N(CCCN1CCCCC1)C2)OCO4", "EXPERIMENTAL_TARGET": "SF-295 CNS", "QUALITATIVE_LABEL": "inactive"}
{"MOLECULE": "O=C(NCOC(O)C(Cl)(Cl)Cl)NCOC(O)C(Cl)(Cl)Cl (centres undefined)", "EXPERIMENTAL_TARGET": "SF-295 CNS", "QUALITATIVE_LABEL": "inactive"}
{"MOLECULE": "CC1(C)N=C(N)N=C(N)N1c1cccc(CN)c1", "EXPERIMENTAL_TARGET": "SF-295 CNS", "QUALITATIVE_LABEL": "inactive"}
{"MOLECULE": "N#Cc1c(NC(=O)c2cccc(C(F)(F)F)c2)sc2c1CCC(=O)C2", "EXPERIMENTAL_TARGET": "SF-295 CNS", "QUALITATIVE_LABEL": "active"}
{"MOLECULE": "COc1cc(C(=O)/C=C/c2c(-c3ccc(F)cc3)nc3ncccn23)cc(OC)c1OC", "EXPERIMENTAL_TARGET": "SF-295 CNS", "QUALITATIVE_LABEL": "inactive"}
{"MOLECULE": "N#Cc1c(-c2ccccc2)nc(SCC2CO2)nc1N1CCOCC1 (centres undefined)", "EXPERIMENTAL_TARGET": "SF-295 CNS", "QUALITATIVE_LABEL": "active"}
{"MOLECULE": "C=C(CNCCc1ccc(O)cc1)[C@@H]1CC[C@]2(COC3CCCCO3)CC[C@]3(C)[C@H](CC[C@@H]4[C@@]5(C)CCC(NCCO)C(C)(C)[C@@H]5CC[C@]43C)[C@@H]12 (some centres undefined)", "EXPERIMENTAL_TARGET": "SF-295 CNS", "QUALITATIVE_LABEL": "active"}
{"MOLECULE": "O=c1[nH]c(NCc2nnnn2-c2ccc(Br)cc2)nc2sc3c(c12)CCCC3", "EXPERIMENTAL_TARGET": "SF-295 CNS", "QUALITATIVE_LABEL": "inactive"}
